These entries and their values trace back to patent US20210139581A1.

target: T1, human CD33 (human, UniProt P20138 18-259, limits assumed); assay: BLI (ForteBio), Fab 100 nM on immobilized CD33
T1 construct: Human CD33 immobilized on the BLI sensor tip or the BIAcore C1 chip; also called Siglec-3
T1 sequence (P20138 18-259 limits assumed): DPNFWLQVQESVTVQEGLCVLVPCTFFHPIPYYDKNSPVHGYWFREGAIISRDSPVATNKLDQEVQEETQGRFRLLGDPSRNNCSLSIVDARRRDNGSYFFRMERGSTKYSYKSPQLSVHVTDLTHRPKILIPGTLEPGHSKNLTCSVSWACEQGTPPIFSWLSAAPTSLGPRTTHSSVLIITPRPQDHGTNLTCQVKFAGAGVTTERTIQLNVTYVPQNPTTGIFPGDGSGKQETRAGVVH
ENDPOINT: Fold affinity improvement over parental Ab (AB-H63) (fold)
Express the result in fold but write the number alone.

Ask | Give a short answer stating reported Fold affinity improvement over parental Ab (AB-H63) for AB-63.14 (antibody, V domains shown) VH: QVQLVQSGAEVKKPGSSVKVSCKASGYTFTDYNLHWVRQAPGQGLEWIGFIYPSNGITGYAQKFQGRVTMTVDTSTSTVYMELSSLRSEDTAVYYCARSDVDYFDYWGQGTLVTVSS VL: DIVLTQSPDSLAVSLGERATIDCKASQDVSTSTYSYMHWYQQKPGQPPKLLIKYASNLESGVPDRFSGSGSGTDFTLTISSLQAEDVAVYYCQHSWEIPLTFGQGTKLEIK .
Reply | 11.2

Ask | Give recorded Fold affinity improvement over parental Ab (AB-H63). AB-63.9 (antibody, V domains shown) VH: QVQLVQSGAEVKKPGASVKVSCKASGYAFTDYNLHWVRQAPGQGLEWIGFIYPSNGITGYAQKFQGRVTMTVDTSTSTVYMELSSLRSEDTAVYYCARSDVDYFDYWGQGTLVTVSS VL: DIVLTQSPDSLAVSLGERATINCRASQDVSTSTYSYMHWYQQKPGQPPKLLIKYASYLESGVPDRFSGSGSGTDFTLTISSLQAEDVAVYYCEHSWEIPLTFGQGTKLEIK
Reply | 10.1

Ask | Dear colleague, please send me the reported Fold affinity improvement over parental Ab (AB-H63) for AB-63.7 (antibody, V domains shown) VH: QVQLVQSGAEVKKPGASVKVSCKASGYTFTDYNLHWVRQAPGQGLEWIGFIYPSNGITGYAQKFQGRVTMTVDTSTSTVYMELSSLRSEDTAVYYCARSTVDYFDYWGQGTLVTVSS VL: DIVLTQSPDSLAVSLGERATINCRASQDVSTSTYSYMHWYQQKPGQPPKLLIKYAFNLESGVPDRFSGSGSGTDFTLTISSLQAEDVAVYYCQHSWEIPLEFGQGTKLEIK when you can.
Reply | 2.97

Ask | Look up and report measured Fold affinity improvement over parental Ab (AB-H63) for this entry: AB-63.12 (antibody, V domains shown) VH: QVQLVQSGAEVKKPGASVKVSCKASGYTFTDYNFHWVRQAPGQGLEWIGFIYPSNGITGYAQKFTGRVTMTVDTSTSTVYMELSSLRSEDTAVYYCARSTVDYFDDWGQGTLVTVSS VL: DIVLTQSPDSLAVSLGERATINCRASQDVSTSTYSYMHWYQQKPGQPPKLLIKYASNVESGVPDRFSGSGSGTDFTLTISSLQAEDVAVYYCQHSWAIPLTFGQGTKLEIK
Reply | 9.84

Ask | Report Fold affinity improvement over parental Ab (AB-H63), nothing else, for this binder: AB-63.11 (antibody, V domains shown) VH: QVQLVQSGAEVKKPGASVKVSCKASGYTFTDYNFHWVRQAPGQGLEWIGFIYPANGITGYAQKDQGRVTMTVDTSTSTVYMELSSLRSEDTAVYYCARSDVDYFDYWGQGTLVTVSS VL: DIVLTQSPDSLAVSLGERATINCRASQDVSTSTYSYMHWYQQKPGQPPKLLIKYASNLESGVPDRFSGSGSGTDFTLTISSLQAEDVAVYYCQHSWEIPLTFGQGTKLEIK
Reply | 7.09
